Test: Cytotoxicity against mouse J774A1 cells after 72 hrs by MTT assay
Type: cell-based, J774.A1
Below, each of the compounds is paired with its reported CC50 at 72 h value.
Metric: CC50 at 72 h

1) CC(C)c1ccc(C(Nc2ccc(C3(C)NC(=O)c4ccccc4N3)cc2)c2nnnn2C2CCCCC2)cc1 (stereo not given)    > 400 µM
2) CC1(c2ccc(NC(c3ccc(Cl)cc3)c3nnnn3C(C)(C)C)cc2)NC(=O)c2ccccc2N1 (stereo not given)    > 400 µM
3) CC1(c2ccc(NC(c3ccc(Cl)cc3)c3nnnn3C3CCCCC3)cc2)NC(=O)c2ccccc2N1 (stereo not given)    > 400 µM
4) CC(C)c1ccc(C(C(=O)NC2CCCCC2)N(C(=O)c2cccc(Cl)c2)c2ccc(C3(C)NC(=O)c4ccccc4N3)cc2)cc1 (stereo not given)    > 400 µM
5) COc1ccc(C(Nc2ccc(C3(C)NC(=O)c4ccccc4N3)cc2)c2nnnn2C(C)(C)C)cc1 (stereo not given)    > 400 µM
6) CC1(c2ccc(Nc3nc(N4CCCCC4)nc(N4CCCCC4)n3)cc2)NC(=O)c2ccccc2N1 (stereo not given)    > 400 µM
7) CC1(c2ccc(NC(c3ccc(Br)cc3)c3nnnn3C3CCCCC3)cc2)NC(=O)c2ccccc2N1 (stereo not given)    > 400 µM
8) CCCNc1nc(NCCC)nc(Nc2ccc(C3(C)NC(=O)c4ccccc4N3)cc2)n1 (stereo not given)    > 400 µM
9) CC1(c2ccc(Nc3nc(NCc4ccccc4)nc(NCc4ccccc4)n3)cc2)NC(=O)c2ccccc2N1 (stereo not given)    > 400 µM
10) CCCCCNc1nc(NCCCCC)nc(Nc2ccc(C3(C)NC(=O)c4ccccc4N3)cc2)n1 (stereo not given)    > 400 µM

---

Below, each of the molecules is paired with its reported IC50 value.
System: Leishmania donovani
Test: Antileishmanial activity against amastigotes of Leishmania donovani MHOM/IN/60/Dd8 infected in mouse J-774A.1 cells after 72 hrs by luciferase reporter gene assay
Format: functional, organism-based
Conditions: MHOM/IN/60/Dd8, J774.A1, 72 h
Metric: IC50

1) CC1(c2ccc(Nc3nc(NCCCN4CCOCC4)nc(NCCCN4CCOCC4)n3)cc2)NC(=O)c2ccccc2N1 (stereo not given)    > 40 µM
2) CC(C)c1ccc(C(Nc2ccc(C3(C)NC(=O)c4ccccc4N3)cc2)c2nnnn2C2CCCCC2)cc1 (stereo not given)    9.07 µM
3) CC1(c2ccc(Nc3nc(N4CCC(O)CC4)nc(N4CCC(O)CC4)n3)cc2)NC(=O)c2ccccc2N1 (stereo not given)    > 40 µM
4) CC(C)(C)n1nnnc1C(c1ccc(C2NC(=O)c3ccccc3N2)cc1)N1CCc2ccccc2C1 (stereo not given)    > 40 µM
5) COc1ccc(CNc2nc(NCc3ccc(OC)cc3)nc(Nc3ccc(C4(C)NC(=O)c5ccccc5N4)cc3)n2)cc1 (stereo not given)    > 40 µM
6) CC1(c2ccc(Nc3nc(N4CCCc5ccccc54)nc(N4CCCc5ccccc54)n3)cc2)NC(=O)c2ccccc2N1 (stereo not given)    > 40 µM
7) CC1(c2ccc(NC(c3ccc(F)cc3)c3nnnn3C(C)(C)C)cc2)NC(=O)c2ccccc2N1 (stereo not given)    > 20 µM
8) CCCCCCCCCCCCCCCCOP(=O)([O-])OCC[N+](C)(C)C    8.4 µM
9) CCCCNC(c1ccc(C2NC(=O)c3ccccc3N2)cc1)c1nnnn1C(C)(C)C (stereo not given)    > 40 µM
10) CCCCCNC(c1ccc(C2NC(=O)c3ccccc3N2)cc1)c1nnnn1C(C)(C)C (stereo not given)    > 40 µM
